Conditions: buffer; pH 7.4; 200.0 µM
Entries and their solubility kinetic

CN(C(=O)COC(=O)c1ccc2ccccc2n1)c1ccccc1
> 48.1 µg/mL
O=Cc1ccc(OCCN2CCCC2=O)cc1
> 35 µg/mL

Please look at the following compound next.
Short answer for `CCCOc1ccc(Cn2c(=O)oc3ccc(C)cc32)cc1` : solubility kinetic was < 0.6 µg/mL

---

Details: buffer; pH 7.4; 200.0 µM
Entries and their solubility kinetic

Before answering, review these 8 worked examples.
COc1cc([N+](=O)[O-])ccc1NC(=O)NCc1ccccn1
> 45.3 µg/mL
COc1ccc(C(=O)NCC(=O)N2CCc3ccccc3C2)cc1
> 48.7 µg/mL
CC(=O)NC1=NN(C(C)=O)C(c2ccco2)S1 (configuration not stated)
> 38 µg/mL
CCc1cc(C(=O)OC)c(NC(=O)c2ccoc2C)s1
< 0.6 µg/mL
CSCC[C@H](NC(=O)NC1CCCC1)C(=O)O
> 39.1 µg/mL
O=C(CNC(=O)COc1ccccc1)NCCc1ccccn1
> 47 µg/mL
Cc1cc(C(=O)OCC(=O)N2C(C)CCCC2C)c2ccccc2n1 (configuration not stated)
> 51.1 µg/mL
NC(=O)c1ccc[n+](CC(=O)c2ccc(Br)cc2)c1.[Br-]
> 60 µg/mL

Short answer for `S=C(NCc1ccc2c(c1)OCO2)NC1CC1` : solubility kinetic was > 37.5 µg/mL

---

Conditions: buffer; pH 7.4; 200.0 µM
Entries and their solubility kinetic
The figure you give is taken to be in µg/mL; do not add the unit.

COc1ccc(CCNC(=O)CCC(=O)NC2CCCC(C)C2C)cc1OC (stereo unspecified)
39.3
CC(C)CC(=O)Nc1ccc(C(=O)CN2CCC(C)CC2)cc1
39.4

Short answer for `O=C(COC(=O)c1cc(=O)[nH]c2ccccc12)Nc1ccccc1F` : solubility kinetic was 19.7

---

Conditions: buffer; pH 7.4; 200.0 µM
readout name: solubility kinetic

CN(C)CCNC(=O)Nc1ccc([N+](=O)[O-])cc1
> 37.8 µg/mL
CC1(CCc2ccccc2)NC(=O)N(CC(=O)Nc2c(F)cccc2F)C1=O (stereo not drawn)
> 58.1 µg/mL
COc1ccc([N+](=O)[O-])cc1Nc1c2ccccc2nc2ccccc12
< 0.2 µg/mL
Cc1nn(C)cc1CN(C)S(=O)(=O)c1cccc([N+](=O)[O-])c1
> 48.7 µg/mL
O=C(O)CCc1nc2ccccc2c(=O)[nH]1
> 32.7 µg/mL
CCN(CC)c1ccc2c(Nc3ccccc3)c(C=O)c(=O)oc2c1
< 0.4 µg/mL
CC(C)c1ccc(NC(=O)CN2C(=O)NC3(CCCC3)C2=O)cc1
> 49.4 µg/mL

Short answer for `COc1ccc(OCCn2cnc3ccccc32)cc1` : solubility kinetic was > 40.2 µg/mL

---

Entries and their solubility kinetic
Details: buffer; pH 7.4; 200.0 µM

Before answering, review these 5 worked examples.
Cc1ccccc1CC(=O)N1CCN(C(=O)C2CCCO2)CC1 (stereo unspecified)
> 47.5 µg/mL
O=C(COC(=O)c1cc(=O)c2ccccc2o1)Nc1ccccc1F
> 51.2 µg/mL
CCN(CC)S(=O)(=O)c1ccc2oc(SCC(=O)NC3CC3)nc2c1
> 57.5 µg/mL
O=C1CCCc2c1nc(-c1ccc([N+](=O)[O-])cc1)n2O
> 41 µg/mL
CCCNC(=O)c1cccc(Br)c1
> 36.3 µg/mL

Short answer for `O=C(O)Cc1ccc(NC(=O)Nc2ccc3c(c2)OCO3)cc1` : solubility kinetic was > 47.1 µg/mL
